measured.target: T1, human IL-13 R130Q variant (R110Q of the mature chain) (human, UniProt P35225 35-146, Biotinylated on amines (NHS-LC-biotin, 4:1) in ELISA, panning and competition assays. The letters are unchanged.)
T1 construct: R130Q counts from Met 1 of the signal peptide, R110Q on the mature chain; Bought from Peprotech; also called IL-13 R110Q; b-R130Q
T1 sequence (P35225 35-146 limits assumed, stated change not applied): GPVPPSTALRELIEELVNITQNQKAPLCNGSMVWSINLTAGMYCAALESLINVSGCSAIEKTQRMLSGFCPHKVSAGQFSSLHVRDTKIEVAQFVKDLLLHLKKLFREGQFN
method.notes: Ra2 binding inhibition ELISA, mAb in crude HEK293 supernatant, IL-13 binding to IL-13Ra2
# reported % Ra2 Binding Inhibition; entries follow

# binder, % Ra2 Binding Inhibition
data = [
    ("mAb with Lc 3D01 (Lc6 variant) and Hc2 (antibody, V domains shown, human IgG1) VH: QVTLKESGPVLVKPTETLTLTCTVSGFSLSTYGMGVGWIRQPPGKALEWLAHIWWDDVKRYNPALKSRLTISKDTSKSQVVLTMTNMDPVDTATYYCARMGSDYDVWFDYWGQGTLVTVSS VL: EIVLTQSPATLSLSPGERATLSCRASKSISKYLAWYQQKPGQAPRLLIYSGSTLQSGIPARFSGSGSGTDFTLTISSLEPEDFAVYYCQQHVGGPYTFGQGTKLEIK", "58.5%"),
    ("mAb with Lc 2E06 (Lc6 variant) and Hc2 (antibody, V domains shown, human IgG1) VH: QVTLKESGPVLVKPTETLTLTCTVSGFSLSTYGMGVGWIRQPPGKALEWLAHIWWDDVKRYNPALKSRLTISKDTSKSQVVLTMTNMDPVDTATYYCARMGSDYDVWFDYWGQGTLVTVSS VL: EIVLTQSPATLSLSPGERATLSCRASKSISKYLAWYQQKPGQAPRLLIYSGSTLQSGIPARFSGSGSGTDFTLTISSLEPEDFAVYYCQQHSSGPYTFGQGTKLEIK", "50.2%"),
    ("mAb with Lc 1B01 (Lc6 variant) and Hc2 (antibody, V domains shown, human IgG1) VH: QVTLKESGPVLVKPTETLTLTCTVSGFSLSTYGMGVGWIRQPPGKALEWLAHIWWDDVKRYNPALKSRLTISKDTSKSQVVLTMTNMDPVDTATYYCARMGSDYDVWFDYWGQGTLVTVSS VL: EIVLTQSPATLSLSPGERATLSCRASKSISKYLAWYQQKPGQAPRLLIYSGSTLQSGIPARFSGSGSGTDFTLTISSLEPEDFAVYYCQQHSWGPYTFGQGTKLEIK", "77.6%"),
    ("mAb with Lc 3C06 (Lc6 variant) and Hc2 (antibody, V domains shown, human IgG1) VH: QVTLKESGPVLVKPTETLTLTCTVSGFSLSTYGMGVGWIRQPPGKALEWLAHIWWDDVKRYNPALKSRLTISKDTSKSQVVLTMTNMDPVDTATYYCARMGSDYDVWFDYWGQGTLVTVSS VL: EIVLTQSPATLSLSPGERATLSCRASKSISKYLAWYQQKPGQAPRLLIYSGSTLQSGIPARFSGSGSGTDFTLTISSLEPEDFAVYYCQQHSVGPYTFGQGTKLEIK", "62.1%"),
    ("mAb with Lc 2G01 (Lc6 variant) and Hc2 (antibody, V domains shown, human IgG1) VH: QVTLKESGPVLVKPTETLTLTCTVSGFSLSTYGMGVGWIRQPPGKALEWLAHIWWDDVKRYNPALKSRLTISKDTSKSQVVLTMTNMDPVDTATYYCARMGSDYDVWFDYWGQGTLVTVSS VL: EIVLTQSPATLSLSPGERATLSCRASKSISKYLAWYQQKPGQAPRLLIYSGSTLQSGIPARFSGSGSGTDFTLTISSLEPEDFAVYYCQQHFWGPYTFGQGTKLEIK", "81.2%"),
    ("mAb with Lc 2A01 (Lc6 variant) and Hc2 (antibody, V domains shown, human IgG1) VH: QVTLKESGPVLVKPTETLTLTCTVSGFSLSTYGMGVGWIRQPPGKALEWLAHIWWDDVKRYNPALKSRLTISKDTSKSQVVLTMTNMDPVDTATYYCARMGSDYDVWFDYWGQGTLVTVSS VL: EIVLTQSPATLSLSPGERATLSCRASKSISKYLAWYQQKPGQAPRLLIYSGSTLQSGIPARFSGSGSGTDFTLTISSLEPEDFAVYYCQQHSHGPYTFGQGTKLEIK", "72.1%"),
    ("Lc6Hc2 (antibody, V domains shown, also called mAb 62; HFA62) VH: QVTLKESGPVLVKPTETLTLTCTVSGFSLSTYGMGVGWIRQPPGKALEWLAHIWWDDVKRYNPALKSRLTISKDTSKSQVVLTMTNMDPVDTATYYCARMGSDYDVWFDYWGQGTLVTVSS VL: EIVLTQSPATLSLSPGERATLSCRASKSISKYLAWYQQKPGQAPRLLIYSGSTLQSGIPARFSGSGSGTDFTLTISSLEPEDFAVYYCQQHNEYPYTFGQGTKLEIK", "34.6%"),
    ("mAb with Lc 5H04 (Lc6 variant) and Hc2 (antibody, V domains shown, human IgG1) VH: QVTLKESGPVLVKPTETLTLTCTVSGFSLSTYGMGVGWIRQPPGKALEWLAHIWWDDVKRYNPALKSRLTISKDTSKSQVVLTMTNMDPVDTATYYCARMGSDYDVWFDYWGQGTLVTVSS VL: EIVLTQSPATLSLSPGERATLSCRASKSISKYLAWYQQKPGQAPRLLIYSGSTLQSGIPARFSGSGSGTDFTLTISSLEPEDFAVYYCQQHDYAPYTFGQGTKLEIK", "66.1%"),
    ("mAb with Lc 3A04 (Lc6 variant) and Hc2 (antibody, V domains shown, human IgG1) VH: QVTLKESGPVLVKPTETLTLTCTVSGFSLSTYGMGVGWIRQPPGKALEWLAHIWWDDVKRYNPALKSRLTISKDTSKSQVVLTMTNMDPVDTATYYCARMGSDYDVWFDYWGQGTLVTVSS VL: EIVLTQSPATLSLSPGERATLSCRASKSISKYLAWYQQKPGQAPRLLIYSGSTLQSGIPARFSGSGSGTDFTLTISSLEPEDFAVYYCQQPLDSPYTFGQGTKLEIK", "67%"),
    ("mAb with Lc 3G02 (Lc6 variant) and Hc2 (antibody, V domains shown, human IgG1) VH: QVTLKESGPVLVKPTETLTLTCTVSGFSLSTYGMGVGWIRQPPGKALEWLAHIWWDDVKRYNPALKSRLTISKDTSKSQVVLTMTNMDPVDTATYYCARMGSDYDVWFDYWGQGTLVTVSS VL: EIVLTQSPATLSLSPGERATLSCRASKSISKYLAWYQQKPGQAPRLLIYSGSTLQSGIPARFSGSGSGTDFTLTISSLEPEDFAVYYCQQHLNGPYTFGQGTKLEIK", "66.9%"),
]
